# ASSAY NOTES: xn = mol fraction of the nth substance listed
# STUDY CONDITIONS: 338.15 K; 100 kPa; Liquid; Single path-length method; x1 = 0.25
Would you kindly list speed of sound for each of these compounds?
# number only, unit m/s dropped from output

Reported speed of sound for CCCC[N+](CCCC)(CCCC)Cc1ccccc1.[Cl-] [benzyltributylammonium chloride] + OCCO : what is it? 1561.7

// query: C[N+](C)(C)Cc1ccccc1.[Cl-] [trimethylbenzylammonium chloride] + OCC(O)CO 1835.8

// query: C[N+](C)(C)Cc1ccccc1.[Cl-] [trimethylbenzylammonium chloride] + OCCOCCO 1644.7

// query: CCCC[N+](CCCC)(CCCC)Cc1ccccc1.[Cl-] [benzyltributylammonium chloride] + OCCOCCOCCO 1543.3

// query: C[N+](C)(C)Cc1ccccc1.[Cl-] [trimethylbenzylammonium chloride] + OCCOCCOCCO 1620.1

// query: C[N+](C)(C)Cc1ccccc1.[Cl-] [trimethylbenzylammonium chloride] + OCCO 1718.5

// query: CCCC[N+](CCCC)(CCCC)Cc1ccccc1.[Cl-] [benzyltributylammonium chloride] + OCCOCCO 1549.2

// query: CCCC[N+](CCCC)(CCCC)Cc1ccccc1.[Cl-] [benzyltributylammonium chloride] + OCC(O)CO 1667.3
